All values here come from patent US7514534.

Target: T1, MMP-26 catalytic domain, tagged with hexa-histidine (human, UniProt Q9NRE1 90-261)
T1 construct: the forward primer adds Met-Ala before it; also called MMP-26 target protein; Matrilysin-2; not shown: Also any N-terminal residues added by the forward primer (Met-Ala according to our card; the primers were not visible to me)
T1 sequence: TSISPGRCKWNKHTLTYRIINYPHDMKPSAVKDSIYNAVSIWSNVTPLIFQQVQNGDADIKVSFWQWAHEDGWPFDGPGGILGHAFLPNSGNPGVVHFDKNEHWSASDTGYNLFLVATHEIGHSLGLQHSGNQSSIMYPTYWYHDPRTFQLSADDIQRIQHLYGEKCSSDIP
Experiment: bead-based ELISA, MMP-26 on nickel beads, IgG4 culture supernatant
hey, just use true if measured F > B (fold over background) is less than 3 fold over background, otherwise false

Check out these entries, answers already filled in.
C09 (antibody, human IgG4, V domains shown, whole human IgG4) VH: EVQLLESGGGLVQPGGSLRLSCAASGFTFSQYFMNWVRQAPGKGLEWVSYISGGRTPYADSVKGRFTISRDNSKNTLYLQMNSLRAEDTAVYYCAILLGPSSSNHPFLGPWGQGTLVTVSS VL: DIQMTQSPGTLSLSPGERATLSCRASQSVSSTYLAWYQQKPGQAPRLLISGASSRATGIPDRFSGSGSGTDFTLTISRLEPEDFAVYYCQQYGSSPYTFGQGTKLEIKR ... false
A03 (antibody, human IgG4, V domains shown, whole human IgG4) VH: EVQLLESGGGLVQPGGSLRLSCAASGFTFSIYSMDWVRQAPGKGLEWVSSIYSSGGATRYADSVKGRFTISRDNSKNTLYLQMNSLRAEDTAVYYCARCSWLQLVPMHPWGQGTLVTVSS VL: QSALTQPPSASGTPGQRVTISCSGGSSNIGSNFVYWYRQLPGTAPKLLIYRNYQRPSGVPDRFSGSKSGTSASLAISGLLSEDEADYYCAAWDDNVGGVFGSGTKVTVLG ... false
C01 (antibody, human IgG4, V domains shown, whole human IgG4) VH: EVQLLESGGGLVQPGGSLRLSCAASGFTFSNYGMSWVRQAPGKGLEWVSVIGPSGGITMYADSVKGRFTISRDNSKNTLYLQMNSLRAEDTAVYYCATGSSSGWYPNFDYWGQGTLVTVSS VL: DIQMTQSPSTLSASVGDRVTITCRASQSIGNWLAWYQQKPGEAPHLLIYQASSLEGGVPSRFSGSGSGTKFTLNISSLQPDDFATYYCQQYNSYSYTFGQGTKLDIKR ... true

*Q* For this binder, is F > B (fold over background) lower than 3 fold over background? B10 (antibody, human IgG4, V domains shown, whole human IgG4) VH: EVQLLESGGGLVQPGGSLRLSCAASGFTFSSYAMMWVRQAPGKGLEWVSWIVPSGGTTFYADSVKGRFTISRDNSKNTLYLQMNSLRAEDTAVYYCARGLYRWGQGTLVTVSSASTKGPSVFP VL: DIQMTQSPSSLSASVGDRVTIACRTSQNVNRYLNWYQHKLGQAPKLLIYGATILQSGVPSRFRGSGSGTDFILTITNLQPEDFAVYYCQQTYSPPLTFGQGTKAEFKGTVAAPSV
*A* true

*Q* Repeat for the following binder: A01 (antibody, human IgG4, V domains shown, whole human IgG4) VH: EVQLLESGGGLVQPGGSLRLSCAASGFTFSAYNMFWVRQAPGKGLEWVSGIGSSGGIAPYADSVKGRFTISRDNSKNTLYLQMNSLRAEDTAVYYCARAAYEVENWFDPWGQGTLVTVSS VL: DIQMTQSPGTLSLSPGERATLSCRASQIVRSTYLAWYQQKPGQAPRLLIYGTSSRATGVPDRFSGSGSGTDFTLTISGLEPEDFALYYCQRYGDSPPITFGQGTRLEITR
*A* false

*Q* Repeat for the following binder: D02 (antibody, human IgG4, V domains shown, whole human IgG4) VH: EVQLLESGGGLVQPGGSLRLSCAASGFTFSWYDMAWVRQAPGKGLEWVSRIVPSGGHTSYADSVKGRFTISRDNFKNTLYLQMNSLRAEDTAVYYCARRASRPEFFDYWGQGALVTVSS VL: DIQMTQSPSFLSASVGDRVTITCRASQGISTYLAWYQQKPGKAPKVLIYTASTLQSGVPSRFSGSGSGTEFTLTISSLQPEDFATYYCQQSYITPPEVTFGPGTKVDIKR
*A* false

*Q* Repeat for the following binder: C06 (antibody, human IgG4, V domains shown, whole human IgG4) VH: EVQLLESGGGLVQPGGSLRLSCAASGFTFSFYFMFWVRQAPGKGLEWVSYIGPSGGPTNYADSVKGRFTISRDNSKNTLYLQMNSLRAEDTAVYYCARHYPREYQLPGSFDPWGQGTLVTVSS VL: DIQMTQSPSSLSASVGDRVTITCRASQGISNYLAWYQQKPGKVPKLLIYPASTLQSGVPSRFSGSGSGTDFTLTISSLQPEDFATYYCQQADSFPPTFGGGTTVEIRR
*A* true

*Q* Repeat for the following binder: D04 (antibody, human IgG4, V domains shown, whole human IgG4) VH: EVQLLESGGGLVQPGGSLRLSCAASGFTFSDYQMMWVRQAPGKGLEWVSRISPSGGMTRYADSVKGRFTISRDNSKNTLYLPMNSLRAEDTAVYYCARSGPYYFDYWGQGTLVTVSS VL: DIQMTQSPSSLSASVGDRVAITCRASQSIDTYLNWYQQKPGKAPKLLIYAASKLEDGVPSRFSGSGTGTDFTLTIRSLQPEDFASYFCQQSYSSPGITFGPGTKVEIKR
*A* true
